All figures here come from paper PMC9987750.

Molecular target: hCA II (Homo sapiens)
Assay: stopped flow CO2 hydrase assay, CA inhibition
Settings: recombinant enzyme, pH 7.4, 10 min pre-incubation, from 3 different assays
experimentalEndpoint: pKi
Units for pKi: none; it is -log10 of a concentration expressed in mol/L.

Past entries and their recorded results:
> print(dat)
                                 testsmiles  observedmeasurement
1  Cc1ccc(NC(=O)Nc2ccc(S(N)(=O)=O)cc2)cc1NC(=O)Nc1ccc(S(N)(=O)=O)cc1                 8.36
2  NS(=O)(=O)c1ccc(CCNC(=O)Nc2ccc(NC(=O)NCCc3ccc(S(N)(=O)=O)cc3)cc2)cc1                 6.37
3  NS(=O)(=O)c1ccc(CCNC(=O)Nc2ccc(Cc3ccc(NC(=O)NCCc4ccc(S(N)(=O)=O)cc4)cc3)cc2)cc1                 6.10
4  Cc1ccc(NC(=O)Nc2cccc(S(N)(=O)=O)c2)cc1NC(=O)Nc1cccc(S(N)(=O)=O)c1                 7.09
5  Cc1ccc(NC(=O)NCCc2ccc(S(N)(=O)=O)cc2)cc1NC(=O)NCCc1ccc(S(N)(=O)=O)cc1                 7.59

So what pKi did Cc1cc(-c2ccc(NC(=O)Nc3cccc(S(N)(=O)=O)c3)c(C)c2)ccc1NC(=O)Nc1cccc(S(N)(=O)=O)c1 get with hCA II (Homo sapiens)?
6.20

Identify the measured pKi of NS(=O)(=O)c1ccc(NC(=O)Nc2ccc(Cc3ccc(NC(=O)Nc4ccc(S(N)(=O)=O)cc4)cc3)cc2)cc1 for hCA II (Homo sapiens).
6.32

For hCA II (Homo sapiens), provide pKi of Cc1cc(-c2ccc(NC(=O)Nc3ccc(S(N)(=O)=O)cc3)c(C)c2)ccc1NC(=O)Nc1ccc(S(N)(=O)=O)cc1 please.
6.52

Hello, I am looking for reported pKi with hCA II (Homo sapiens) for Cc1cc(-c2ccc(NC(=O)NCCc3ccc(S(N)(=O)=O)cc3)c(C)c2)ccc1NC(=O)NCCc1ccc(S(N)(=O)=O)cc1 . Could you help?
6.22

Query the reported pKi for hCA II (Homo sapiens); item: NS(=O)(=O)c1cccc(NC(=O)Nc2ccc(NC(=O)Nc3cccc(S(N)(=O)=O)c3)cc2)c1
6.26

Any idea what pKi came out for NS(=O)(=O)c1ccc(NC(=O)Nc2ccc(NC(=O)Nc3ccc(S(N)(=O)=O)cc3)cc2)cc1 on hCA II (Homo sapiens)?
6.17

Form entry - test system: hCA II (Homo sapiens); read-out: pKi; molecule: NS(=O)(=O)c1cccc(NC(=O)Nc2ccc(Cc3ccc(NC(=O)Nc4cccc(S(N)(=O)=O)c4)cc3)cc2)c1
6.51
